Quick list: melting temperature per entry.
Test system: HeLa Kyoto
Assay: melting temperature (median over replicates), in situ; higher = more thermally stable
Conditions: cell cycle stage: mitosis

RESIDUE SEQUENCE	melting temperature / °C
MAIKSIASRLRGSRRFLSGFVAGAVVGAAGAGLAALQFFRSQGAEGALTGKQPDGSAEKAVLEQFGFPLTGTEARCYTNHALSYDQAKRVPRWVLEHISKSKIMGDADRKHCKFKPDPNIPPTFSAFNEDYVGSGWSRGHMAPAGNNKFSSKAMAETFYLSNIVPQDFDNNSGYWNRIEMYCRELTERFEDVWVVSGPLTLPQTRGDGKKIVSYQVIGEDNVAVPSHLYKVILARRSSVSTEPLALGAFVVPNEAIGFQPQLTEFQVSLQDLEKLSGLVFFPHLDRTSDIRNICSVDTCKLLDFQEFTLYLSTRKIEGARSVLRLEKIMENLKNAEIEPDDYFMSRYEKKLEELKAKEQSGTQIRKPS [EXOG]	51.3
MESYDIIANQPVVIDNGSGVIKAGFAGDQIPKYCFPNYVGRPKHMRVMAGALEGDLFIGPKAEEHRGLLTIRYPMEHGVVRDWNDMERIWQYVYSKDQLQTFSEEHPVLLTEAPLNPSKNREKAAEVFFETFNVPALFISMQAVLSLYATGRTTGVVLDSGDGVTHAVPIYEGFAMPHSIMRVDIAGRDVSRYLRLLLRKEGVDFHTSAEFEVVRTIKERACYLSINPQKDEALETEKVQYTLPDGSTLDVGPARFRAPELLFQPDLVGDESEGLHEVVAFAIHKSDMDLRRTLFANIVLSGGSTLFKGFGDRLLSEVKKLAPKDIKIKISAPQERLYSTWIGGSILASLDTFKKMWVSKKEYEEDGSRAIHRKTF [ACTR1B]	53.1

* * *

Quick list: solubility change mitosis (log2) per entry.
System: HeLa Kyoto
Test: solubility change mitosis vs G1/S (difference of NP-40 vs SDS log2 ratios) (log2 ratio difference); higher = more soluble in mitosis
ENDPOINT NAME: solubility change mitosis (log2)

RESIDUE SEQUENCE	MEASUREMENT TARGET	REPORTED RESULT
MPKKFQGENTKSAAARARRAEAKAAADAKKQKELEDAYWKDDDKHVMRKEQRKEEKEKRRLDQLERKKETQRLLEEEDSKLKGGKAPRVATSSKVTRAQIEDTLRRDHQLREAPDTAEKAKSHLEVPLEENVNRRVLEEGSVEARTIEDAIAVLSVAEEAADRHPERRMRAAFTAFEEAQLPRLKQENPNMRLSQLKQLLKKEWLRSPDNPMNQRAVPFNAPK [CCDC124]	HeLa Kyoto	0.537
MNRVNDPLIFIRDIKPGLKNLNVVFIVLEIGRVTKTKDGHEVRSCKVADKTGSITISVWDEIGGLIQPGDIIRLTRGYASMWKGCLTLYTGRGGELQKIGEFCMVYSEVPNFSEPNPDYRGQQNKGAQSEQKNNSMNSNMGTGTFGPVGNGVHTGPESREHQFSHAGRSNGRGLINPQLQGTASNQTVMTTISNGRDPRRAFKR [NABP1]	HeLa Kyoto	-0.222
MSGGKYVDSEGHLYTVPIREQGNIYKPNNKAMADELSEKQVYDAHTKEIDLVNRDPKHLNDDVVKIDFEDVIAEPEGTHSFDGIWKASFTTFTVTKYWFYRLLSALFGIPMALIWGIYFAILSFLHIWAVVPCIKSFLIEIQCISRVYSIYVHTVCDPLFEAVGKIFSNVRINLQKEI [CAV1]	HeLa Kyoto	-0.0544
